Reference source: paper PMC8542630

Biological target: GFP-Sc-Dyn AAA3 E/Q (E2488Q) (Saccharomyces cerevisiae, UniProt P36022, E2488Q)
Sequence (P36022 1219-4092 E2488Q): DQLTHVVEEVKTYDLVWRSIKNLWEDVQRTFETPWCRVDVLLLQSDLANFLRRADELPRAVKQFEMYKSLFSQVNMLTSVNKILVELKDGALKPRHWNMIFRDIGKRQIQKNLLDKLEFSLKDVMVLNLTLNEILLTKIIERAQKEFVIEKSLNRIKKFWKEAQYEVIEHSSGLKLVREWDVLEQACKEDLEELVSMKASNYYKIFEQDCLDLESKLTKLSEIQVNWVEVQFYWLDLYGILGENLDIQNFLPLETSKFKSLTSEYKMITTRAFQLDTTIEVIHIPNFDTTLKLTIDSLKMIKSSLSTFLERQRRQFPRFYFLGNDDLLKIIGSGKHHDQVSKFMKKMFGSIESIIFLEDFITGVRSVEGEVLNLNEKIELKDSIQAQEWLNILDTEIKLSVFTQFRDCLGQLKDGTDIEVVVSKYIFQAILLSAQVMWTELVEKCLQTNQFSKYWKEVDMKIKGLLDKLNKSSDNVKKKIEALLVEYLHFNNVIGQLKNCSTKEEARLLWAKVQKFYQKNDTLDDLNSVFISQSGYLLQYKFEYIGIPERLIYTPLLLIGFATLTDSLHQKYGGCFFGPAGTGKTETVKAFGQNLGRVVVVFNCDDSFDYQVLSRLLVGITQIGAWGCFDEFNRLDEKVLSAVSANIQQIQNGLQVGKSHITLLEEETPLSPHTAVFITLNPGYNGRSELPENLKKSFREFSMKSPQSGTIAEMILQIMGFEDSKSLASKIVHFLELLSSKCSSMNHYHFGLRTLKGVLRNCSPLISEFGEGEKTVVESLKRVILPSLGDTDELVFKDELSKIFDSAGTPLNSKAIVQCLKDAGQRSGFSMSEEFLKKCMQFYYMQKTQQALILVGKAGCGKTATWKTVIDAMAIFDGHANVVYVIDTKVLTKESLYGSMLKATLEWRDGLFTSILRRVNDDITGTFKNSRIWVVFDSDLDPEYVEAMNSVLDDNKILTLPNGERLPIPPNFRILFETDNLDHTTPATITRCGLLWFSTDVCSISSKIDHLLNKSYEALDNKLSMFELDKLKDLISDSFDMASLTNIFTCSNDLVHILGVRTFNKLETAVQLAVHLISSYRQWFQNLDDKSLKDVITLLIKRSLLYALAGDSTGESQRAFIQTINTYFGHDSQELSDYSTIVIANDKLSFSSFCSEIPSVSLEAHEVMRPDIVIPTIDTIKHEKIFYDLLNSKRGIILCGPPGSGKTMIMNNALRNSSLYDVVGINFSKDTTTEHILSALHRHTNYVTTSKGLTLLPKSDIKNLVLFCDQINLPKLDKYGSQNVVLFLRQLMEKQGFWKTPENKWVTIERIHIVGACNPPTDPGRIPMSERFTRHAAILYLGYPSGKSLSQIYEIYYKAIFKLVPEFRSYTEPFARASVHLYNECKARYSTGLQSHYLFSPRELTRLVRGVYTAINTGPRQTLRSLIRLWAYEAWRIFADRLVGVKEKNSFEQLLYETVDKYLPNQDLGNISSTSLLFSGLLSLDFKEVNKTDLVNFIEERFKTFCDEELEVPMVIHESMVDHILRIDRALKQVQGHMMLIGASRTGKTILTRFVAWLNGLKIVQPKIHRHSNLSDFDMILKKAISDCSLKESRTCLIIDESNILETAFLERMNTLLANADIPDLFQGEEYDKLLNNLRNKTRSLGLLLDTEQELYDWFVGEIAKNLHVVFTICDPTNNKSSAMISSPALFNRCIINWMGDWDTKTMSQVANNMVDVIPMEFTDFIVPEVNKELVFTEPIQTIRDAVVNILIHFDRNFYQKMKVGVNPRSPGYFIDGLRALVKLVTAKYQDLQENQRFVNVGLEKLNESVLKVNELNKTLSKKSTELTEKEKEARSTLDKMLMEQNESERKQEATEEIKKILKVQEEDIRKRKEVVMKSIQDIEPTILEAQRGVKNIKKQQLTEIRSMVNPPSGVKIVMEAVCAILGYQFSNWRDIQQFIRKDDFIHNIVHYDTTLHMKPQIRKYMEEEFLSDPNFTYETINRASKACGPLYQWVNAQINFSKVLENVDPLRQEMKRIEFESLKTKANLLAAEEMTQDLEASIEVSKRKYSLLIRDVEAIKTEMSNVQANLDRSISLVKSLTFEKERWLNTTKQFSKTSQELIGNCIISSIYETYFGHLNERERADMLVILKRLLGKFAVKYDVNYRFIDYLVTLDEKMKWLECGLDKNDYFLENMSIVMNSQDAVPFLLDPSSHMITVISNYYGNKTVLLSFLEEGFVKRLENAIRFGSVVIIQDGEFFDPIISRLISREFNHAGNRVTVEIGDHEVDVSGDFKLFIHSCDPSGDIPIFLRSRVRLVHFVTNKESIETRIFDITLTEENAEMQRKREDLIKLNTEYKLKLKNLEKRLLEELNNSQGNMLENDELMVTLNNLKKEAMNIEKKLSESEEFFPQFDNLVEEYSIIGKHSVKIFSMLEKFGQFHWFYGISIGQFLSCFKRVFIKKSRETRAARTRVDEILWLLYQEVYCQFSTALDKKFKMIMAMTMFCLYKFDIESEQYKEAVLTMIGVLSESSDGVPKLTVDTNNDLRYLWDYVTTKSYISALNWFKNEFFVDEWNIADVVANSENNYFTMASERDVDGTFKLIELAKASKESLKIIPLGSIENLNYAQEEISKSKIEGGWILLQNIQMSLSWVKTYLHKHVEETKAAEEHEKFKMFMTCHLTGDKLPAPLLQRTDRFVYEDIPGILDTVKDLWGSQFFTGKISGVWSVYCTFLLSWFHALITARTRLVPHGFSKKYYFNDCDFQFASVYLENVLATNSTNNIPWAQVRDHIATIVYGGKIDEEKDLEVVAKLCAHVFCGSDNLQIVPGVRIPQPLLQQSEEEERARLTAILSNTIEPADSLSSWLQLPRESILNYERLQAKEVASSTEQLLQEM
Experiment: NADH-coupled steady-state ATPase assay, GFP-Sc-Dyn AAA3 E/Q mutant
test readout: pIC50
# pIC50 is unitless: minus log10 of the molar concentration; print number only

Noted for `N#Cc1c(C2(c3ccc(Cl)cc3)CC2)nn2c(=O)c(Oc3cccc(Br)c3)c[nH]c12` : its pIC50 reads 5.09

----------
Target: GFP-Sc-Dyn AAA1 E/Q (E1849Q) (Saccharomyces cerevisiae, UniProt P36022, E1849Q)
Sequence (P36022 1219-4092 E1849Q): as the sequence (P36022 1219-4092 E2488Q) above, with E631Q, Q1270E counted along it
Assay: Microscale thermophoresis
test readout: EC50 (µM)
Value expressed in µM; do not type the unit.

Field EC50 (GFP-Sc-Dyn AAA1 E/Q (E1849Q) (Saccharomyces cerevisiae, UniProt P36022, E1849Q)), entry `N#Cc1c(C2(c3ccc(Cl)cc3)CC2)nn2c(=O)c(Oc3cccc(Br)c3)c[nH]c12` : 73

----------
Molecular target: GFP-Sc-Dyn AAA4 E/Q (E2819Q) (Saccharomyces cerevisiae, UniProt P36022, E2819Q)
Assay: NADH-coupled steady-state ATPase assay, GFP-Sc-Dyn AAA4 E/Q mutant
test readout: pIC50
# pIC50 is unitless: minus log10 of the molar concentration; print number only

Noted for N#Cc1c(C2(c3ccc(Cl)cc3)CC2)nn2c(=O)c(Oc3cccc(Br)c3)c[nH]c12 [compound 20] : its pIC50 reads 5.54

----------
Target: Hs-dynein 1 (Homo sapiens)
Experiment: Radioactive ATPase assay, microtubule-stimulated ATPase activity of Hs-dynein 1
Format: biochemical
pIC50: −log10 of the molar value.
The following compounds are shown together with reported pIC50 values.

INSERT INTO results (compound_structure_string, test_readout, measurement) VALUES
  ('N#Cc1c(C2(c3ccc(Cl)cc3)CC2)nn2c(=O)c(Oc3cccc(Br)c3)c[nH]c12', 'pIC50', '~5.00');

Noted for `N#Cc1c(C2(c3ccc(Cl)cc3)CC2)nn2c(=O)c(Oc3cccc(Cl)c3)c[nH]c12` : its pIC50 reads ~4.52

----------
Target: GFP-Sc-Dyn AAA4 E/Q (E2819Q) (Saccharomyces cerevisiae, UniProt P36022, E2819Q)
Experiment: Microscale thermophoresis
pEC50: −log10 of the molar value.
test readout: pEC50

Noted for `N#Cc1c(C2(c3ccc(Cl)cc3)CC2)nn2c(=O)c(Oc3cccc(Br)c3)c[nH]c12` : its pEC50 reads < 3.70

----------
Biological target: Hs-dynein 1 (Homo sapiens, UniProt Q14204)
Assay: Radioactive ATPase assay, basal ATPase activity of Hs-dynein 1
Type: biochemical
Conditions: compounds tested at 20 μM, 1 mM MgATP, no microtubules, n=2
test readout: Inhibition of Hs-dynein 1 basal ATPase activity (in words)

Some molecules with recorded Inhibition of Hs-dynein 1 basal ATPase activity (in words):
INSERT INTO results (compound_structure_string, measurement) VALUES
  ('N#Cc1c(C2(c3ccc(Cl)cc3)CC2)nn2c(=O)c(Oc3cccc(Cl)c3)c[nH]c12', 'most active'),
  ('N#Cc1c(C2(c3ccc(Cl)cc3)CC2)nn2c(=O)c(Oc3cccc(Br)c3)c[nH]c12', 'most active'),
  ('N#Cc1c(C2(c3ccc(Cl)cc3)CC2)nn2c(=O)c(Oc3ccc(Cl)cc3)c[nH]c12', 'less active'),
  ('N#Cc1c(C2(c3ccc(Cl)cc3)CC2)nn2c(=O)c(Oc3ccccc3Cl)c[nH]c12', 'less active');

Next, consider the following molecule.
Noted for `COc1cccc(Oc2c[nH]c3c(C#N)c(C4(c5ccc(Cl)cc5)CC4)nn3c2=O)c1` : its Inhibition of Hs-dynein 1 basal ATPase activity (in words) reads less active
